Quick reference: solubility (g/100 g solution) of the listed items.
Assay: xn = mol fraction of the nth substance listed, in the solute-free solvent
Settings: 318.15 K; x2 = 0.06974
// response body must contain only the number

Name the recorded solubility (g/100 g solution) for COC(=O)C1=C(C)NC(C)=C(C(=O)OCC(C)C)C1c1ccccc1[N+](=O)[O-] (stereo not given) + CCCO + O .
2.23

Next molecule up: CC(=O)Nc1ccc(OC(=O)c2ccccc2OC(C)=O)cc1 + CC(C)O + O
0.0846

Next molecule up: CS(=O)(=O)c1ccc(C(O)C(CF)NC(=O)C(Cl)Cl)cc1 (stereo not given) + CC(C)O + O
1

Next molecule up: COC(=O)C1=C(C)NC(C)=C(C(=O)OCC(C)C)C1c1ccccc1[N+](=O)[O-] (stereo not given) + CC(C)O + O
2.71

Next molecule up: O=[N+]([O-])c1cc[nH]n1 + CCCO + O
1.68
